Assignment: determine reported inhibition at 0.3 µM for the given compounds.
- study-system: Recombinant human JAK1 catalytic domain (Homo sapiens (Human), UniProt P23458)
- Sequence (P23458 875-1153): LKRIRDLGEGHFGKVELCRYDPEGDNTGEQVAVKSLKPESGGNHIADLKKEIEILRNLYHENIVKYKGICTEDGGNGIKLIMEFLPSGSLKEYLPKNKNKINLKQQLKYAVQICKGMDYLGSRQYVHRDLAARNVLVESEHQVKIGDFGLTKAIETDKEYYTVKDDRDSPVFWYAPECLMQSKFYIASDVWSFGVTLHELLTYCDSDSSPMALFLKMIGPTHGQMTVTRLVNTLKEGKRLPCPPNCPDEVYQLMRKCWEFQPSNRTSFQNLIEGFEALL
- test-name: JAK1 kinase assay (Z'-LYTE Tyr 6 Peptide)
- Type: biochemical
- experimental-context: JAK1 kinase assay, 0.3 uM concentration; read-out: inhibition percentage (IR %)

// field: inhibition at 0.3 µM; key: "CN(c1ccc(NS(=O)(=O)c2ccc(F)cc2)cn1)[C@@H]1CCN(c2ncnc3[nH]ccc23)C1" ; value = 50 to 100%

// field: inhibition at 0.3 µM; key: "CN(C(=O)c1ccc(N(C)[C@@H]2CCN(c3ncnc4[nH]ccc34)C2)nc1)c1ccccc1" ; value = 50 to 100%

// field: inhibition at 0.3 µM; key: "CN(c1ccccn1)[C@@H]1CCN(c2ncnc3[nH]ccc23)C1" ; value = 50 to 100%

// field: inhibition at 0.3 µM; key: "CCN(c1ccc(S(C)(=O)=O)cn1)[C@@H]1CCN(c2ncnc3[nH]ccc23)C1" ; value = 20 to 50%
